Entries and their inhibition values follow.
Biological target: MAP kinase-activated protein kinase 5 (Homo sapiens) (UniProt Q8IW41);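 further: mean inhibition of PRAK measured in the GSK PKIS screen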
Sequence (whole entry): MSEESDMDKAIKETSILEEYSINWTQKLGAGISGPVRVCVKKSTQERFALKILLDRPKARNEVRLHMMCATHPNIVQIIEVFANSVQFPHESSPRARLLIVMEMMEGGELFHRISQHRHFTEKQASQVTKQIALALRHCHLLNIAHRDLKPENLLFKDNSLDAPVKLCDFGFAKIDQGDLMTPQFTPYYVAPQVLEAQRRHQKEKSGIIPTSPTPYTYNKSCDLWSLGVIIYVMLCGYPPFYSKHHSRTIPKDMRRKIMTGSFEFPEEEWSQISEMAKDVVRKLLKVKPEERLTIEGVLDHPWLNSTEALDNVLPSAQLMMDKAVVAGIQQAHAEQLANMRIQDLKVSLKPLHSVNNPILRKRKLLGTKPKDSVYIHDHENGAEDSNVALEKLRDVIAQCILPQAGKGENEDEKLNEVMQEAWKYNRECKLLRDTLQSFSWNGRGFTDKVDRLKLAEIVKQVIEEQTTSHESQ
Conditions: at 1 µM
observed property: inhibition

In [3]: df
Out[3]:
                          compound_structure                               test_target  observed_property  test_value
 0      Nc1nc(-c2ccccn2)c(-c2ccc3ncccc3n2)s1  MAP kinase-activated protein kinase 5 (Homo sapiens) (UniProt Q8IW41)         inhibition       1.64%
 1  CS(=O)(=O)CCNCc1nc(-c2ccc3ncnc(Nc4ccc(F)c(Cl)c4)c3c2)cs1  MAP kinase-activated protein kinase 5 (Homo sapiens) (UniProt Q8IW41)         inhibition       1.43%
 2  COc1cc2ncn(-c3cc(OCc4ccccc4Cl)c(C(N)=O)s3)c2cc1OC  MAP kinase-activated protein kinase 5 (Homo sapiens) (UniProt Q8IW41)         inhibition       0.67%
 3  COc1cccc(-n2ncc3c(N/N=C/c4cccc(F)c4)ncnc32)c1  MAP kinase-activated protein kinase 5 (Homo sapiens) (UniProt Q8IW41)         inhibition       0.71%
 4  CN(C)c1cc2c(Nc3ccc4nc(Cc5ccccc5)[nH]c4c3)ncnc2cn1  MAP kinase-activated protein kinase 5 (Homo sapiens) (UniProt Q8IW41)         inhibition       2.12%
 5       CCn1c(-c2nonc2N)nc2c(N3CCCC3)nccc21  MAP kinase-activated protein kinase 5 (Homo sapiens) (UniProt Q8IW41)         inhibition      -0.15%
 6  O=C(Nc1n[nH]c2nc(-c3ccco3)c(Br)cc12)C1CC1  MAP kinase-activated protein kinase 5 (Homo sapiens) (UniProt Q8IW41)         inhibition       0.07%
 7  O=C1NC(=O)C(c2ccc(Cl)cc2)=C1Nc1ccc(Cl)c(C(=O)O)c1  MAP kinase-activated protein kinase 5 (Homo sapiens) (UniProt Q8IW41)         inhibition      -0.59%
 8  COC(=O)Nc1nc2cc(Oc3cccc(NC(=O)Nc4cc(C(F)(F)F)ccc4F)c3)ccc2[nH]1  MAP kinase-activated protein kinase 5 (Homo sapiens) (UniProt Q8IW41)         inhibition      -2.14%
 9  COC(=O)Nc1nc2cc(Oc3ccc(NC(=O)Nc4cccc(C(=O)O)c4)cc3)ccc2[nH]1  MAP kinase-activated protein kinase 5 (Homo sapiens) (UniProt Q8IW41)         inhibition          1%
10    O=C1NC(=O)C(c2ccccc2Cl)=C1Nc1cccc(O)c1  MAP kinase-activated protein kinase 5 (Homo sapiens) (UniProt Q8IW41)         inhibition       0.06%
11  COc1ccc(-c2nn3ncccc3c2-c2ccnc(Nc3ccc(Cl)c(C(F)(F)F)c3)n2)cc1  MAP kinase-activated protein kinase 5 (Homo sapiens) (UniProt Q8IW41)         inhibition       1.91%
12  CC(=O)Nc1cccc(C#Cc2cncnc2Nc2ccc(OCc3cccc(F)c3)c(Cl)c2)n1  MAP kinase-activated protein kinase 5 (Homo sapiens) (UniProt Q8IW41)         inhibition       2.24%
